Each entry below carries its recorded chromatographic logD.
Protocol Text: physchem
Condition Notes: HPLC, Ascentis Express RP Amide column, pH 7.4, eLogD
Give the value as a plain number.

- Molecule: "COc1ccc(Cl)cc1S(=O)(=O)N(CCO)Cc1ccccc1"
  chromatographic logD: 3.5
- Molecule: "CCN(Cc1ccccn1)S(=O)(=O)c1cc(OC)ccc1OC"
  chromatographic logD: 2.7
- Molecule: "CCN(Cc1ccccc1)S(=O)(=O)c1ccccc1"
  chromatographic logD: 3.8
- Molecule: "CCN(Cc1ccccc1)S(=O)(=O)c1ccccc1Br"
  chromatographic logD: 4.2

Item CCC(Cc1ccccc1)[S+]([O-])c1nc(C)cc(C)c1C#N (centres unmarked) has what recorded chromatographic logD?
3.2
